Kindly state pIC50 for each of the entries shown.
- experiment_description: Concentration required for 50% Inhibition of activity against Yersinia Protein-tyrosine phosphatase
Units for pIC50: none; it is -log10 of a concentration expressed in mol/L.

## Task In one line, give reported pIC50 of the entry O=C(O)C(=O)c1ccc(OCc2cccc(COc3ccc(C(=O)C(=O)O)cc3)c2)cc1 .
## Result 5.39

## Task State, in one line, measured pIC50 of O=C(O)C(=O)c1ccc(OCc2ccccc2COc2ccc(C(=O)C(=O)O)cc2)cc1
## Result 5.07

## Task Let me know recorded pIC50 for O=C(O)C(=O)c1ccc(OCc2cc(COc3ccc(C(=O)C(=O)O)cc3)cc(COc3ccc(C(=O)C(=O)O)cc3)c2)cc1 , thanks.
## Result 5.77

## Task Read off the recorded pIC50 for O=C(O)C(=O)c1ccc(OCc2ccc(COc3ccc(C(=O)C(=O)O)cc3)cc2)cc1
## Result 6.15

## Task State, in one line, measured pIC50 of O=C(O)C(=O)c1ccc(O)cc1 [(4-Hydroxy-phenyl)-oxo-acetic acid]
## Result 3.70
